Record form. Attribute: melting point. Fill in for each entry.

Guide cases for melting point, answers given:
Cc1cc(COc2nn3c(-c4ccccc4F)nncc3c2-c2ccccc2F)nn1C; 183 °C
CC(C)OCC(C)Oc1ccc(COc2cnn(C(C)(C)C)c(=O)c2Cl)cc1 (stereo not given); 60 to 62 °C
CCSc1cccc(OC(F)(F)F)c1S(=O)(=O)NC(=O)c1noc(C)n1; 111 °C

Please go through the list and note melting point for each compound.
1. O=C1Nc2cccc(-c3ccccc3)c2/C1=C/c1ccc[nH]1
2. CN(C(=O)c1ccccc1)C(=N[N+](=O)[O-])NCc1cnc(Cl)s1
3. O=C1Nc2ccccc2Sc2nccn21
4. NC(=O)c1sc2cncc(Oc3ccc(Cl)cc3)c2c1N
5. CSCS[C@H](C)[C@](O)(Cn1cncn1)c1ccc(F)cc1F
6. CCOC(=O)c1c(C)n(C(=O)c2ccccc2)c2ccc(Oc3nc(OC)cc(OC)n3)c(C(=O)OCc3ccccc3)c12
7. CN(C)CCCOc1ccnc2cc([N+](=O)[O-])ccc12

["184 to 185 °C", "170 to 172 °C", "250 to 252 °C", "202 to 204 °C", "108 to 109 °C", "128 to 132 °C", "146 to 149 °C"]
